tested on: MS2 coat protein; experiment: apparent KD of MS2 coat protein; designed switch direction (-1 OFF switch, 1 ON switch): 1; higher = weaker reporter binding; settings: input ligand: none
Field: apparent KD of MS2 coat protein. Provide a value for each of the sequences that follow.
Give the number; nM is assumed, so skip it.

-- ask Recall the recorded apparent KD of MS2 coat protein for GUAGCAUACCGAGGAUAUUCAUAUAAUAACAUGAGGAUCACCCAUGUUUAUAGGCGAAAGCCUUGGGAGAAGGCGGAAUGCUAC [Xeonanis - 20 Mod63] (Eterna round: R96, puzzle: Same State NG 2) with MS2 coat protein and state it.
-- reply 18.8

-- ask For MS2 coat protein, provide apparent KD of MS2 coat protein of UACCUACCAGGAGGAUAUACAAACCCGAAAGGAGUAGAAGGCCUGAGUACUAACAUGAGGAUCACCCAUGUAGCGCCAGUUCGC [Eternabot solution 10] (Eterna round: R96, puzzle: Same State NG 1) please.
-- reply 17.4

-- ask Please tell me: apparent KD of MS2 coat protein of CGCGGUAAGGAAGGAUAUGGGACGAAAACGUACCUAGAAGGUCCACAUGAGGAUCACCCAUGUACCAAGAAAGCCGCGAAAUUA [Cereraus] (Eterna round: R96, puzzle: Same State NG 1) , system MS2 coat protein?
-- reply 410

-- ask Form field - read-out: apparent KD of MS2 coat protein; system: MS2 coat protein; submitted item: CGCUGUCACGCAGGAUAUGCAUUGGAUUACAAUGCAGAAGGGCGAUCACAUGAGGAUCACCCAUGUGUAGACAGUGAAGAAGAG [MOD2 JMF Solution 3] (Eterna round: R96, puzzle: Same State NG 1)
-- reply 480

-- ask Identify the measured apparent KD of MS2 coat protein of CCGGACAUGAGGAUCACCCAUGUCGACGGAUACCCUUGGGCAUAGGAUAUCUGGAAUUAAAAGAAAGAGAAGGGUGAUCCAAGG [Qusoinrege] (Eterna round: R96, puzzle: Same State NG 3) for MS2 coat protein.
-- reply 40.4
